# testedOn: RET (Homo sapiens)
# Sequence (P07949 29-1114): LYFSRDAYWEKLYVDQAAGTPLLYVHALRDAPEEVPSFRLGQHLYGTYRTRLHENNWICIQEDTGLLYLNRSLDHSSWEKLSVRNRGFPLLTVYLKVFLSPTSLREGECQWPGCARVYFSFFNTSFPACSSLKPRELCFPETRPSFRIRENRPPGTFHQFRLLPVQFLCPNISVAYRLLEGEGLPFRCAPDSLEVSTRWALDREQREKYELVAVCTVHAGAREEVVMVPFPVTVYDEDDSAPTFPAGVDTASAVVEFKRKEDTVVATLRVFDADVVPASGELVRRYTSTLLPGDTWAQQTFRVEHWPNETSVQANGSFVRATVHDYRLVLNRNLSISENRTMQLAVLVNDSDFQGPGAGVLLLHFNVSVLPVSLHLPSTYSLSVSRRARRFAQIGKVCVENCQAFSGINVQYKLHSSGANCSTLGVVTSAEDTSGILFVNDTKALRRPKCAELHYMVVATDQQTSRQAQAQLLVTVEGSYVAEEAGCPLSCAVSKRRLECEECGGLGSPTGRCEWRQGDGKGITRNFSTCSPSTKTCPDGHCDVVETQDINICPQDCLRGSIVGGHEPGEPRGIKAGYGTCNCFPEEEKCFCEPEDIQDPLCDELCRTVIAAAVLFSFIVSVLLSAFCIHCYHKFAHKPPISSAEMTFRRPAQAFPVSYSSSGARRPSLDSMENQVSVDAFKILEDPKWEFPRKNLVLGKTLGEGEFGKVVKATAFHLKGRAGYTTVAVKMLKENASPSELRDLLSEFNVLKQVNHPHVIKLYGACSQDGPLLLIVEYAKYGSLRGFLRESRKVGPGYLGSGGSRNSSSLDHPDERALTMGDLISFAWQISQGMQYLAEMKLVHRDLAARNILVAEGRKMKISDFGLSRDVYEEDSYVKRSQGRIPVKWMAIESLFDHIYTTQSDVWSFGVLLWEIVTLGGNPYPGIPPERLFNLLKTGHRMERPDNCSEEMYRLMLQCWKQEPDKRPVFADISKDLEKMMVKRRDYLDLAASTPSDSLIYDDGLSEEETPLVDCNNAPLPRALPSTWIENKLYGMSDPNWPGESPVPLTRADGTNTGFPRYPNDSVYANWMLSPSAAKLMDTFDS
readout: IC50

-- ask Requested field: IC50. Item: Cn1cc(-c2ccc3c(c2)ncn3-c2ccc(CC(=O)Nc3cc(C(C)(C)C)on3)cc2)cn1 [Pz-1]
-- reply < 1 nM

* * *

# testedOn: RET^V804M (Homo sapiens, UniProt P07949, V804M)
# Sequence (P07949 29-1114 V804M): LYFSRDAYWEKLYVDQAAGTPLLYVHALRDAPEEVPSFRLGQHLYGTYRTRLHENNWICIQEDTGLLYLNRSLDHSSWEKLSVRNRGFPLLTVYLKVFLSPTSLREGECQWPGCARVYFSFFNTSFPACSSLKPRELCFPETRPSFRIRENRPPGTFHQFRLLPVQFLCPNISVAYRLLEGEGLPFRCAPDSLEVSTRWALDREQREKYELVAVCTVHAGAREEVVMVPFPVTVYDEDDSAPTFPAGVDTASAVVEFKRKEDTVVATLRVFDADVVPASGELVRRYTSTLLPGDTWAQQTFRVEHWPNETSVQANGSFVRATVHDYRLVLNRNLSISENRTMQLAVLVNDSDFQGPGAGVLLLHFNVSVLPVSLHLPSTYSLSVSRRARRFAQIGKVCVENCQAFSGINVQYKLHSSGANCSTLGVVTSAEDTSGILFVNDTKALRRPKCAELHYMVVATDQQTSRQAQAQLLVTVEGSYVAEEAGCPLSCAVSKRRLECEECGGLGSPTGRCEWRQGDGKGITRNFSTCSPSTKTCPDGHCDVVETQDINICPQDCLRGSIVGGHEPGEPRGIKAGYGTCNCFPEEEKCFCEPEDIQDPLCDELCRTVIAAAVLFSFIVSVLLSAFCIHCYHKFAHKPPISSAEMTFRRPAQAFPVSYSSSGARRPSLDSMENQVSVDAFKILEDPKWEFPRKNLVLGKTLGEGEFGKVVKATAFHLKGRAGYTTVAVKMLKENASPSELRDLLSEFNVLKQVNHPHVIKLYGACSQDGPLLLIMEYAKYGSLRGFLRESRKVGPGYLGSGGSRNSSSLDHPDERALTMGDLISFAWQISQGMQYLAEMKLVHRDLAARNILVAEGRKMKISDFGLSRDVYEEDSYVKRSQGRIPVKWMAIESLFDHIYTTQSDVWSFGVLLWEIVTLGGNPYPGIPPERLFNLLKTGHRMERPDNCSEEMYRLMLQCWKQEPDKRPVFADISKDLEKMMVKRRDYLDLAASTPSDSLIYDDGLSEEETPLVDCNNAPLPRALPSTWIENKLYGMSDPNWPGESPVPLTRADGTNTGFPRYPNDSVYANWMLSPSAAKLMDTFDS
# experimentSummary: RET V804M kinase microfluidics separation based assay
# Type: biochemical
# setupConditions: read-out: IC50, RET^V804M; [ATP] = 190 μM
pIC50: −log10 of the molar value.
readout: pIC50

-- ask Requested field: pIC50. Item: Cn1cc(-c2ccc3c(c2)ncn3-c2ccc(CC(=O)Nc3cc(C(C)(C)C)on3)cc2)cn1 [Pz-1]
-- reply > 9.00

src = paper PMC4535927
